study target: Recombinant human cathepsin A (Homo sapiens, UniProt P10619)
Construct: Recombinant human cathepsin A (residues 29-480, with a C-terminal 10-His tag); 10-His (C); purchased R&D Systems 1049-SE
Sequence (P10619 29-312 limits assumed): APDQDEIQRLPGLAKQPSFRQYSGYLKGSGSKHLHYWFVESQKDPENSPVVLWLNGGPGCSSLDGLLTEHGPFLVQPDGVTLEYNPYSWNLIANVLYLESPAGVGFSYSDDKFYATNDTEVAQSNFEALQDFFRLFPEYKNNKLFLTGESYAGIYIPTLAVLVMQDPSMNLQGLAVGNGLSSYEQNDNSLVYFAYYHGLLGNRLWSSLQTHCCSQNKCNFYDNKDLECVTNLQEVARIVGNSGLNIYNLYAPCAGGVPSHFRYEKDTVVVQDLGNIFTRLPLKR
Sequence (P10619 327-480 limits assumed): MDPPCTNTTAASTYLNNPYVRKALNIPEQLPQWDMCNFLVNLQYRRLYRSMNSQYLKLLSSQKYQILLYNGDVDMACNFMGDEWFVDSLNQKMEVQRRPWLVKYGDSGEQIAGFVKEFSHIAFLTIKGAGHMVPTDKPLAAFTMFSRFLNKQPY
assay summary: Cathepsin A inhibitory activity
Assay type: biochemical
condition set: recombinant human cathepsin A 833 ng/ml, Bodipy FL-labeled bradykinin 2 μM, pH 5.5; read-out: CATH-A IC50
pIC50: −log10 of the molar value.
quantity kind: pIC50

// known answers, use as guide
COc1ccc(F)c(C(CC(=O)O)NC(=O)c2cc(O)n(-c3ccccc3Cl)n2)c1 (stereo not shown); 6.14
COc1cc(-c2ccccc2)ccc1C(CC(=O)O)NC(=O)c1cc(O)n(-c2ccccc2)n1 (stereo not shown); 5.95

(a) O=C(O)CC(NC(=O)c1cc(O)n(-c2ccccc2Cl)n1)c1ccc(-n2cncn2)cc1 (stereo not shown)
(b) COc1ccc(F)c(C(CC(=O)O)NC(=O)c2cc(O)n(-c3ccccc3)n2)c1 (stereo not shown)
Could you tell me which of a and b has the lower pIC50 reading? Answer format: the label of the selected item.
b

---

study target: Recombinant human cathepsin A (Homo sapiens, UniProt P10619)
Construct: Recombinant human cathepsin A (residues 29-480, with a C-terminal 10-His tag); 10-His (C); purchased R&D Systems 1049-SE
assay summary: Cathepsin A inhibitory activity
Assay type: biochemical
condition set: recombinant human cathepsin A 833 ng/ml, Bodipy FL-labeled bradykinin 2 μM, pH 5.5; read-out: CATH-A IC50
quantity kind: IC50 (nM)

These solved cases illustrate the format of a correct answer.
COc1ccc(C(F)(F)F)cc1C(CC(=O)O)NC(=O)c1cc(O)n(-c2ccccc2)n1 (stereo not shown) [Example 548]; 7760
COc1ccc(F)c(C(CC(=O)O)NC(=O)c2cc(O)n(-c3ccccc3F)n2)c1 (stereo not shown) [Example 553]; 732
O=C(O)CC(NC(=O)c1cc(O)n(-c2ccc(F)cc2F)n1)c1cc(F)ccc1F (stereo not shown) [Example 451]; 233
Cc1ccccc1[C@H](CC(=O)O)NC(=O)c1cc(OC[C@@](C)(O)C(C)(C)C)n(-c2ccccc2F)n1 (single isomer, unassigned) [Example 748]; 2.56
O=C(O)CC(NC(=O)c1cc(O)n(-c2ccc(F)cc2)n1)c1cc(Cl)ccc1Cl (stereo not shown) [Example 493]; 246

(1) O=C(O)CC(NC(=O)c1cc(O)n(-c2ccc(F)cc2)n1)c1ccc(-c2ccccn2)cc1 (stereo not shown) [Example 527]
(2) O=C(O)CC(NC(=O)c1cc(O)n(-c2cccc(Cl)c2)n1)c1cc(F)ccc1F (stereo not shown) [Example 465]
(3) COc1ccc(-c2ccccc2)cc1C(CC(=O)O)NC(=O)c1cc(O)n(-c2ccccc2)n1 (stereo not shown) [Example 549]
Hey, can you sort those compounds up there by IC50, smallest first? Returns: the labels arranged in the requested order.
1, 2, 3
(1: 152 nM, 2: 738 nM, 3: 13800 nM)

(a) O=C(O)CC(NC(=O)c1cc(O)n(-c2cccc(Cl)c2)n1)c1cccc(C(F)(F)F)c1F (stereo not shown) [Example 418]
(b) O=C(O)CC(NC(=O)c1cc(O)n(-c2ccc(F)cc2F)n1)c1cccc2c1OC(F)(F)O2 (stereo not shown) [Example 450]
For the pair a and b , which entry has the numerically smaller recorded IC50? State your choice using its label.
b
(b: 409 nM, a: 5290 nM)

(1) Cc1c(F)cccc1C(CC(=O)O)NC(=O)c1cc(O)n(-c2ccc(F)cc2F)n1 (stereo not shown) [Example 447]
(2) COc1ccc(C(CC(=O)O)NC(=O)c2cc(O)n(-c3ccccc3)n2)c(C(F)(F)F)c1 (stereo not shown) [Example 546]
Which of the two items, 1 and 2 , has the greater recorded IC50? Let me know the label of the one you choose.
2
